Ki: recorded values
Molecular target: Mcl-1 (Homo sapiens (Human))
Experiment: Fluorescence polarization anisotropy (FPA) competition assay, FITC-Bak or FITC-Bim BH3 peptide
Format: binding
Conditions: read-out: Ki for Inhibition of Mcl-1 by FPA assay

Example results:
>>> df
                                   compound                 target_system  metric  meas_value
0  Cc1cc(OCCCc2c3n(c4c(-c5c(C)nn(C)c5C)c(Cl)ccc24)[C@H](C)CN(c2cn(C)c4ccc(-c5nnn[nH]5)cc24)C3=O)cc(C)c1Cl [Example 251]  Mcl-1 (Homo sapiens (Human))      Ki      < 1 nM
1  Cc1cc(OCCCc2c3n(c4c(-c5c(C)nn(C)c5C)c(Cl)ccc24)[C@H](C)CN(c2cccc4c2c(C(=O)O)cn4C)C3=O)cc(C)c1Cl  Mcl-1 (Homo sapiens (Human))      Ki      < 1 nM

Read the next record carefully.
Consider the compound `Cc1cc(OCCCc2c3n(c4c(-c5c(C)nn(C)c5C)c(Cl)ccc24)CCCN(c2cc(C(=O)O)c4cn[nH]c4c2)C3=O)cc(C)c1Cl` . State its measured Ki. < 1 nM

---

Tested on: H929 human cancer cell lines
Assay: Cellular viability / proliferation (Cell TiterGlo, 72 h)
Assay type: cell-based
Conditions: Homo sapiens, NCI-H929, 72 h, read-out: GI50 on cellular proliferation of H929 human cancer cell lines, H929 cells, 72 h, Cell TiterGlo, 10% FBS
Each entry below carries its recorded log10 GI50.
Hi team, quick reminder: these entries are log10 of GI50 (nM).

>>> print(df.to_string())
                            molecule_smiles      metric  meas_value
0  Cc1cc(OCCCc2c3n(c4c(-c5c(C)n[nH]c5C)c(Cl)ccc24)[C@H](C)CN(c2cccc4c(C(=O)O)cn(C)c24)C3=O)cc(C)c1Cl  log10 GI50        2.94
1  COCCn1ncc2c(C(=O)O)cc(N3CCCn4c(c(CCCOc5cc(C)c(Cl)c(C)c5)c5ccc(Cl)c(-c6c(C)nn(C)c6C)c54)C3=O)cc21  log10 GI50        3.68
2  Cc1cc(OCCCc2c3n(c4c(-c5c(C)nn(C)c5C)c(Cl)ccc24)[C@H](C)CN(c2cccc4c(C(=O)O)c5n(c24)CCN(C)C5=O)C3=O)cc(C)c1Cl  log10 GI50        3.08
3  Cc1cc(OCCCc2c3n(c4c(-c5c(C)nn(C)c5C)c(Cl)ccc24)[C@H](C)CN(c2cccc4ccn(C)c24)C3=O)cc(C)c1Cl  log10 GI50        3.20
4  Cc1cc(OCCCc2c3n(c4c(-c5c(C)nn(C)c5C)c(Cl)ccc24)[C@H](C)CN(c2cccc4c(C(N)=O)cn(C)c24)C3=O)cc(C)c1Cl  log10 GI50        3.30
5  Cc1cc(OCCCc2c3n(c4c(-c5c(C)nn(C)c5C)c(Cl)ccc24)[C@H](C)CN(c2cn(CCN4CCOCC4)c4cc(C(=O)O)ccc24)C3=O)cc(C)c1Cl  log10 GI50        2.84
6  Cc1cc(OCCCc2c3n(c4c(-c5c(C)nn(C)c5C)c(Cl)ccc24)[C@H](C)CN(c2cc(OC(F)(F)F)cc4cc(C(=O)O)[nH]c24)C3=O)cc(C)c1Cl  log10 GI50        3.52
7  Cc1cc(N2C[C@@H](C)n3c(c(CCCOc4cc(C)c(Cl)c(C)c4)c4ccc(Cl)c(-c5c(C)nn(C)c5C)c43)C2=O)c2c(c1)c(C)c(C(=O)O)n2C  log10 GI50        2.40

Please give the documented log10 GI50 of `Cc1cc(OCCCc2c3n(c4c(-c5c(C)nn(C)c5C)c(Cl)ccc24)[C@H](C)CN(c2cn(C)c4ccc(C(=O)N(C)C)cc24)C3=O)cc(C)c1Cl` 3.72

Please list log10 GI50 recorded for the compound `Cc1cc(OCCCc2c3n(c4c(-c5c(C)nn(C)c5C)c(Cl)ccc24)[C@H](C)CN(c2cc(CN4CCOCC4)cc4c(C(=O)O)cn(C)c24)C3=O)cc(C)c1Cl` 2.53

---

Target: Mcl-1 (Homo sapiens (Human), UniProt Q07820)
Sequence (Q07820 172-327): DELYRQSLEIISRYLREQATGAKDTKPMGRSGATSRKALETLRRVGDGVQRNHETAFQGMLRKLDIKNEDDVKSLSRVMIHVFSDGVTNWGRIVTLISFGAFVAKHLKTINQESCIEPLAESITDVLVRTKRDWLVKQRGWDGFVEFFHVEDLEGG
Assay: TR-FRET binding assay, FITC-Bak peptide and MBP-tagged Mcl-1
Settings: read-out: Ki for Inhibition of Mcl-1 by TR-FRET assay
Quick reference for Ki among some compounds

>>> print(df.to_string())
                            molecule_smiles  metric  meas_value
0  Cc1cc(OCCCc2c3n(c4c(-c5c(C)nn(C)c5C)c(Cl)ccc24)[C@H](C)CN(c2cccc4cc(C(=O)O)n(Cc5cnn(C)n5)c24)C3=O)cc(C)c1Cl      Ki    < 0.2 nM
1  Cc1cc(N2C[C@@H](C)n3c(c(CCCOc4cc(C)c(Cl)c(C)c4)c4ccc(Cl)c(-c5c(C)nn(C)c5C)c43)C2=O)c2c(c1)cc(C(=O)O)n2CCOC(C)C      Ki    < 0.2 nM

Report Ki for `Cc1cc(OCCCc2c3n(c4c(-c5c(C)nn(C)c5C)c(Cl)ccc24)[C@H](C)CN(c2cccc4cc(C(=O)O)n(Cc5ccncn5)c24)C3=O)cc(C)c1Cl` < 0.2 nM

---

Test system: H929 human cancer cell lines
Assay: Cellular viability / proliferation (Cell TiterGlo, 72 h)
Format: cell-based
Conditions: Homo sapiens, NCI-H929, 72 h, read-out: GI50 on cellular proliferation of H929 human cancer cell lines, H929 cells, 72 h, Cell TiterGlo, 10% FBS
METRIC: GI50

// worked examples, GI50 included
                            molecule_smiles  metric  meas_value
0  COc1ccc(N2C[C@@H](C)n3c(c(CCCOc4cc(C)c(Cl)c(C)c4)c4ccc(Cl)c(-c5c(C)ncnc5C)c43)C2=O)c2c1cc(C(=O)O)n2Cc1ccccn1    GI50    < 200 nM
1  Cc1cc(OCCCc2c3n(c4c(-c5c(C)nc(CN6CCOCC6)nc5C)c(Cl)ccc24)[C@H](C)CN(c2cn(C)c4ccc(-c5ncn(C)n5)cc24)C3=O)cc(C)c1Cl    GI50    < 200 nM
2  COc1ccc(N2C[C@@H](C)n3c(c(CCCOc4cc(C)c(Cl)c(C)c4)c4ccc(Cl)c(-c5c(C)nn(C)c5C)c43)C2=O)c2c1cc(C(=O)O)n2Cc1ccccn1    GI50    < 200 nM
3  Cc1cc(N2C[C@@H](C)n3c(c(CCCOc4cc(C)c(Cl)c(C)c4)c4ccc(Cl)c(-c5c(C)nn(C)c5C)c43)C2=O)c2c(c1)cc(C(N)=O)n2Cc1ccccn1    GI50      510 nM
4  CC(=O)c1ccc2c(c1)c(N1C[C@@H](C)n3c(c(CCCOc4cc(C)c(Cl)c(C)c4)c4ccc(Cl)c(-c5c(C)nn(C)c5C)c43)C1=O)cn2C    GI50      550 nM
5  Cc1cc(OCCCc2c3n(c4c(-c5c(C)nn(C)c5C)c(Cl)ccc24)[C@H](C)CN(c2cn(C)c4ccc(C(=O)NCc5ccncc5)cc24)C3=O)cc(C)c1Cl    GI50     1500 nM
6  COC1CCN(Cc2cc(N3C[C@@H](C)n4c(c(CCCOc5cc(C)c(Cl)c(C)c5)c5ccc(Cl)c(-c6c(C)nn(C)c6C)c54)C3=O)c3c(c2)cc(C(=O)O)n3C)CC1    GI50    < 200 nM
7  Cc1ccnc(-c2ccc3c(c2)c(N2C[C@@H](C)n4c(c(CCCOc5cc(C)c(Cl)c(C)c5)c5ccc(Cl)c(-c6c(C)nn(C)c6C)c54)C2=O)cn3C)n1    GI50      900 nM

Provide only the value of recorded GI50 for `Cc1cc(OCCCc2c3n(c4c(-c5c(C)nn(C)c5C)c(Cl)ccc24)[C@H](C)CN(c2cn(CC(=O)N4CCOCC4)c4ccc(-c5ncn(C)n5)cc24)C3=O)cc(C)c1Cl` 330 nM

Quick one: give measured GI50 for `COCCn1c(C(=O)O)cc2cc(C)cc(N3C[C@@H](C)n4c(c(CCCOc5cc(C)c(Cl)c(C)c5)c5ccc(Cl)c(-c6c(C)n[nH]c6C)c54)C3=O)c21` 410 nM

Identify GI50 associated with the molecule `COCCn1c(C(=O)O)cc2cc(C)cc(N3C[C@@H](C)n4c(c(CCCOc5cc(C)c(Cl)c(C)c5)c5ccc(Cl)c(-c6c(C)nn(C)c6C)c54)C3=O)c21` < 200 nM

Respond only with GI50 recorded for `COCc1nc(-c2ccc3c(c2)c(N2C[C@@H](C)n4c(c(CCCOc5cc(C)c(Cl)c(C)c5)c5ccc(Cl)c(-c6c(C)nn(C)c6C)c54)C2=O)cn3C)nn1C` 210 nM
